The measured values listed here are drawn from paper PMC7826789.

Test system: CAMK1B
Construct: gene PNCK
Details: Compound Concentration (nM):1000;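 further: KINOMEscan scanMAX binding as percent activity remaining versus control; lower means stronger binding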
Percent Control reference
Give the value, in units of %, as a plain number.

Past entries and their recorded results:
# compound, endpointValue
measured = [
    ("CCS(=O)(=O)c1ccc(OC)c(Nc2ncc(-c3cccc(F)c3)o2)c1 [GW621970X]", 100),
    ("O=C1Nc2ccc(C(=O)c3ccco3)cc2C1=Cc1cc(Cl)c(O)c(Cl)c1 [GW406108X]", 100),
    ("Cl.O=C(Nc1ccc(Oc2ccc3[nH]c(NC(=O)c4ccco4)nc3c2)cc1)Nc1cc(C(F)(F)F)ccc1F [GW683134A]", 100),
    ("COc1ccc(COc2ccc(Cc3cnc(N)nc3N)cc2OC)cc1 [GW632580X]", 100),
    ("Cl.O=S1CCN(Cc2ccc(-c3ccc4ncnc(Nc5ccc(OCc6ccccc6)c(F)c5)c4c3)o2)CC1 [GW576924A]", 100),
]

What value of Percent Control has been reported for the following compound? COc1ccc2c(-c3ccnc(Nc4cccc(OC(F)(F)F)c4)n3)cnn2n1 [GW810372X] 100

What value of Percent Control has been reported for the following compound? COc1ccc2cc(-c3c(-c4ccncc4)nc(-c4ccc(S(C)(=O)=O)cc4C)n3C)ccc2c1 [SB-633825] 53

###

Test system: BLK
Details: Compound Concentration (nM):1000
Tag: met if measured Percent Control is not below 90%, not met if it is.

Use the examples below as a reference point.
# compound, groupLabel
measured = [
    ("CCS(=O)(=O)c1ccc(OC)c(Nc2ncc(-c3cccc(F)c3)o2)c1 [GW621970X]", "not met"),
    ("C/C(Nc1ccc(S(N)(=O)=O)cc1)=C1/C(=O)Nc2ccccc21 [GW335962X]", "met"),
    ("CN1CCN(C(=O)c2ccc(NC(=O)Nc3ccc(N(C)c4ccnc(Nc5ccc(CS(C)(=O)=O)cc5)n4)cc3)cc2)CC1.Cl [GW830263A]", "not met"),
]

Identify whether the reported Percent Control of the following compound is 90% or greater: O=C1Nc2ccc(C(=O)c3ccco3)cc2C1=Cc1cc(Cl)c(O)c(Cl)c1 [GW406108X] met

###

System: FLT3(D835H)
Conditions: Compound Concentration (nM):1000
reportedProperty: Percent Control (%)
Give the value, in units of %, as a plain number.

Past entries and their recorded results:
# molecule, endpointValue
measured = [
    ("COc1cc(/C=N/Nc2ncnc3[nH]ncc23)ccc1O [GW578748X]", 25),
    ("NS(=O)(=O)c1ccc(N/N=C2\\C(=O)Nc3ccc(C(=O)NCCc4c[nH]cn4)cc32)cc1 [GW300660X]", 52),
    ("COc1ccc(COc2ccc(Cc3cnc(N)nc3N)cc2OC)cc1 [GW632580X]", 100),
]

What value of Percent Control has been reported for the following molecule? COc1ccc2[nH]c3c4[nH]c5ccc(OC)cc5c4c4c(c3c2c1)C(=O)NC4=O [GW296115X] 12

###

System: PIK3CA(H1047Y)
Details: Compound Concentration (nM):1000
reportedProperty: Percent Control (%)
Give the value, in units of %, as a plain number.

Past entries and their recorded results:
# molecule, systemTested, Percent Control (%)
rows = [
    ("CN1CCN(C(=O)c2ccc(NC(=O)Nc3ccc(N(C)c4ccnc(Nc5ccc(CS(C)(=O)=O)cc5)n4)cc3)cc2)CC1.Cl [GW830263A]", "PIK3CA(H1047Y)", 100),
    ("Cl.O=C(Nc1ccc(Oc2ccc3[nH]c(NC(=O)c4ccccc4)nc3c2)cc1)Nc1cc(C(F)(F)F)ccc1F [GW709042A]", "PIK3CA(H1047Y)", 80),
    ("COc1ccc2[nH]c3c4[nH]c5ccc(OC)cc5c4c4c(c3c2c1)C(=O)NC4=O [GW296115X]", "PIK3CA(H1047Y)", 89),
    ("COc1ccc2c(-c3ccnc(Nc4cccc(OC(F)(F)F)c4)n3)cnn2n1 [GW810372X]", "PIK3CA(H1047Y)", 82),
    ("Cl.O=S1CCN(Cc2ccc(-c3ccc4ncnc(Nc5ccc(OCc6ccccc6)c(F)c5)c4c3)o2)CC1 [GW576924A]", "PIK3CA(H1047Y)", 100),
    ("O=C(Nc1n[nH]c2nc(-c3ccc(O)cc3)c(Br)cc12)C1CC1", "PIK3CA(H1047Y)", 93),
    ("COc1ccc2cc(-c3c(-c4ccncc4)nc(-c4ccc(S(C)(=O)=O)cc4C)n3C)ccc2c1", "PIK3CA(H1047Y)", 91),
    ("CN(C)CCNC(=O)Nc1ccc(N(C)c2ccnc(Nc3ccc(CS(C)(=O)=O)cc3)n2)cc1.Cl [GW830900A]", "PIK3CA(H1047Y)", 98),
    ("C/C(Nc1ccc(S(N)(=O)=O)cc1)=C1/C(=O)Nc2ccccc21 [GW335962X]", "PIK3CA(H1047Y)", 85),
    ("COc1cc(C)c(N(C)C(=O)CN(C)C)cc1Nc1nc(Nc2cccc(F)c2C(N)=O)c2cc[nH]c2n1", "PIK3CA(H1047Y)", 67),
]

What value of Percent Control has been reported for the following molecule? CCS(=O)(=O)c1ccc(OC)c(Nc2ncc(-c3cccc(F)c3)o2)c1 [GW621970X] 97

What value of Percent Control has been reported for the following molecule? CCn1c(-c2nonc2N)nc2c(C#CC(C)(C)O)nc(OCCNC)cc21.Cl 77

What value of Percent Control has been reported for the following molecule? CCc1ccc(Oc2nccc(-c3c(-c4ccc(F)cc4)ncn3C3CCNCC3)n2)cc1 81

###

Tested on: TRPM6
Details: Compound Concentration (nM):1000
reportedProperty: Percent Control (%)
Give the value, in units of %, as a plain number.

Past entries and their recorded results:
# compound, systemTested, unitsSymbol, endpointValue
data = [
    ("CN1CCN(C(=O)c2ccc(NC(=O)Nc3ccc(N(C)c4ccnc(Nc5ccc(CS(C)(=O)=O)cc5)n4)cc3)cc2)CC1.Cl [GW830263A]", "TRPM6", "%", 91),
    ("C[C@@H](Oc1cc(-n2cnc3ccc(OC4CCN(C)CC4)cc32)sc1C(N)=O)c1ccccc1Cl [GSK579289A]", "TRPM6", "%", 88),
]

# ---- query compound ----
What value of Percent Control has been reported for the following compound? CC1=C(C(=O)Nc2ccc3[nH]ncc3c2)C(c2ccc3ccccc3c2)CC(=O)N1 (centres unmarked) [GSK270822A] 82

###

Percent Control reference
Test system: CSK
Conditions: Compound Concentration (nM):1000
Give the value, in units of %, as a plain number.

Past entries and their recorded results:
# compound, Percent Control [%]
rows = [
    ("NS(=O)(=O)c1ccc(N/N=C2\\C(=O)Nc3ccc(-c4cnco4)cc32)cc1", 92),
    ("Cc1cc(O)cc(C)c1/C=C/c1cncc(C(N)=O)c1 [GW435821X]", 80),
    ("COc1cc(C=NNc2ncnc3c2cnn3-c2ccccc2)ccc1O [GW513184X]", 100),
    ("COc1cccc(-n2ncc3c(N/N=C/c4ccncc4)ncnc32)c1 [GW784752X]", 78),
    ("COc1ccc2c(-c3ccnc(Nc4cccc(OC(F)(F)F)c4)n3)cnn2n1 [GW810372X]", 100),
]

What value of Percent Control has been reported for the following compound? CCS(=O)(=O)c1ccc(OC)c(Nc2ncc(-c3cccc(OC)c3)o2)c1 [GW580509X] 90

What value of Percent Control has been reported for the following compound? COc1cc(N2CCN(C(C)C)CC2)ccc1Nc1nc(Nc2ccc(F)cc2C(=O)NC[C@@H](O)CO)c2cc[nH]c2n1 [GSK1392956A] 86

What value of Percent Control has been reported for the following compound? COc1ccc2cc(-c3c(-c4ccncc4)nc(-c4ccc(S(C)(=O)=O)cc4C)n3C)ccc2c1 98

What value of Percent Control has been reported for the following compound? COc1cc(C)c(N(C)C(=O)CN(C)C)cc1Nc1nc(Nc2cccc(F)c2C(N)=O)c2cc[nH]c2n1 95

What value of Percent Control has been reported for the following compound? NS(=O)(=O)c1ccc(N/N=C2\C(=O)Nc3ccc(Cl)cc32)cc1 [GW280670X] 100

What value of Percent Control has been reported for the following compound? COc1cccc(-c2c[nH]c3c(N/N=C/c4ccncc4)ncnc23)c1 [GW814408X] 66

What value of Percent Control has been reported for the following compound? Cl.O=C(O[C@H]1CN[C@H](C#Cc2cc3ncnc(Nc4ccc5c(cnn5Cc5ccccc5)c4)c3s2)C1)N1CCOCC1 [GSK200398A] 67

What value of Percent Control has been reported for the following compound? CC(C)COC(=O)c1ccc2c(c1)/C(=C/Nc1ccc(S(N)(=O)=O)cc1)C(=O)N2 [GW416981X] 100

What value of Percent Control has been reported for the following compound? Cl.O=C(Nc1ccc(Oc2ccc3[nH]c(NC(=O)c4ccco4)nc3c2)cc1)Nc1cc(C(F)(F)F)ccc1F [GW683134A] 85

What value of Percent Control has been reported for the following compound? COC(=O)Nc1nc2ccc(Oc3ccc(NC(=O)Nc4cc(C(F)(F)F)ccc4F)cc3)cc2s1.Cl [GW693917A] 70

What value of Percent Control has been reported for the following compound? Cl.O=S1CCN(Cc2ccc(-c3ccc4ncnc(Nc5ccc(OCc6ccccc6)c(F)c5)c4c3)o2)CC1 [GW576924A] 100

What value of Percent Control has been reported for the following compound? CN(C)CCNC(=O)Nc1ccc(N(C)c2ccnc(Nc3ccc(CS(C)(=O)=O)cc3)n2)cc1.Cl [GW830900A] 98
